Value source: paper PMC7113773

For each entry below, report its IC50 value.
Field: numeric (µM). Do not append units.

QUERY: Find the measured IC50: item Cc1cc2c(c(=S)[nH]1)C(=O)O/C2=C\c1c[nH]c2ccc(F)cc12 [Compound 15a] , target or system PR8 NA (Influenza A virus).
RESULT: 0.6

QUERY: Find the measured IC50: item Cc1cc2c(c(=S)[nH]1)C(=O)O/C2=C\c1cccs1 [Compound 15q] , target or system PR8 NA (Influenza A virus).
RESULT: 1.5

* * *

For each entry below, report its CC50 value.
assay: in vitro; settings: dog
Structures can show the parent of a compound that is named as a salt.

QUERY: If you can, please state the reported CC50 value of Cc1cc2c(c(=S)[nH]1)C(=O)O/C2=C\c1cc2ccccc2s1 [Compound 15g] .
RESULT: > 900 µM

QUERY: If you can, please state the reported CC50 value of Cc1cc2c(c(=S)n1C)C(=O)O/C2=C\c1cc2cc(F)ccc2[nH]1 [Compound 15c] .
RESULT: > 900 µM

QUERY: If you can, please state the reported CC50 value of Cc1cc2c(c(=O)[nH]1)C(=O)O/C2=C\c1ccoc1 [Compound 15n] .
RESULT: 61.9 µM

QUERY: If you can, please state the reported CC50 value of Cc1cc2c(c(=S)[nH]1)C(=O)O/C2=C\c1c[nH]c2ccccc12 [Compound 15e] .
RESULT: > 900 µM

QUERY: If you can, please state the reported CC50 value of Cc1ccsc1/C=C1\OC(=O)c2c1cc(C)n(C)c2=S [Compound 15x] .
RESULT: > 900 µM

QUERY: If you can, please state the reported CC50 value of Cc1cc2c(c(=S)[nH]1)C(=O)O/C2=C\c1cc(Br)cs1 [Compound 15v] .
RESULT: > 900 µM

QUERY: If you can, please state the reported CC50 value of Cc1cc2c(c(=S)[nH]1)C(=O)O/C2=C\c1sc2ccccc2c1C [Compound 15h] .
RESULT: > 900 µM

QUERY: If you can, please state the reported CC50 value of Cc1cc2c(c(=O)[nH]1)C(=O)O/C2=C\c1ccsc1 [Compound 15k] .
RESULT: 19.8 µM

QUERY: If you can, please state the reported CC50 value of CCc1ccc(/C=C2\OC(=O)c3c2cc(C)[nH]c3=S)s1 [Compound 15u] .
RESULT: > 900 µM

QUERY: If you can, please state the reported CC50 value of CCC(CC)O[C@@H]1C=C(C(=O)O)C[C@H](N)[C@H]1NC(C)=O [Oseltamivir carboxylate, oseltamivir carboxylate, reference compound] .
RESULT: > 100 µM

QUERY: If you can, please state the reported CC50 value of Cc1cc2c(c(=S)[nH]1)C(=O)O/C2=C\c1sccc1C [Compound 15s] .
RESULT: > 900 µM

QUERY: If you can, please state the reported CC50 value of O=C1O/C(=C\c2cccs2)c2cc(-c3ccccc3)[nH]c(=S)c21 [Compound 15r] .
RESULT: > 900 µM

QUERY: If you can, please state the reported CC50 value of Cc1cc2c(c(=S)[nH]1)C(=O)O/C2=C\c1c[nH]cn1 [Compound 15o] .
RESULT: > 900 µM

QUERY: If you can, please state the reported CC50 value of Cc1cc2c(c(=S)[nH]1)C(=O)O/C2=C\c1ccsc1 [Compound 15j] .
RESULT: > 900 µM

QUERY: If you can, please state the reported CC50 value of NC12CC3CC(CC(C3)C1)C2 [Amantadine hydrochloride, reference compound] .
RESULT: > 100 µM

QUERY: If you can, please state the reported CC50 value of Cc1cc2c(c(=S)[nH]1)C(=O)O/C2=C\c1ncc[nH]1 [Compound 15p] .
RESULT: > 900 µM

QUERY: If you can, please state the reported CC50 value of O=C1O/C(=C\c2c[nH]c3ccc(F)cc23)c2cc(-c3ccccc3)[nH]c(=S)c21 [Compound 15d] .
RESULT: > 900 µM

QUERY: If you can, please state the reported CC50 value of Cc1cc2c(c(=O)[nH]1)C(=O)O/C2=C\c1c[nH]c2ccc(F)cc12 [Compound 15b] .
RESULT: > 900 µM
